# experimental.target: HIV-1 integrase wild-type (IN1-288) (HIV-1, UniProt P12497 P12497:1148-1435)
# assay.remarks: inhibition; first activity column (headed strand transfer); other column 0.084
# details: G4
parameter.measured: IC50 (nM)

{"binder": "GUGGUGGGUGGGUGGGU (ssRNA, PS at first and last linkages, RNA sugars) [T30661]", "parameter.measured": "IC50", "result.value": 111}

The reported measurements were obtained from patent US6323185.
